# TARGET_SYSTEM: Somatostatin receptor type 2 (Mus musculus, UniProt P30875)
# Sequence (P30875 whole entry): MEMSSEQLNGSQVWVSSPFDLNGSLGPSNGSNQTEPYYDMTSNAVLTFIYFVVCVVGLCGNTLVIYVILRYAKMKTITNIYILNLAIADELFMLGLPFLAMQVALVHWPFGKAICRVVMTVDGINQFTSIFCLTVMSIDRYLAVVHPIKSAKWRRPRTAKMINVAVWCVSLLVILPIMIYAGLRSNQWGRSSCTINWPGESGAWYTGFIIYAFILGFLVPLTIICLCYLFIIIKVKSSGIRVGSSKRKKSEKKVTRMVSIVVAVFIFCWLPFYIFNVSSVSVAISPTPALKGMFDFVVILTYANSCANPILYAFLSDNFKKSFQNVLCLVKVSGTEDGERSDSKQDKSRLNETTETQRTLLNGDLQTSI
Where a SMILES comes first, the peptide text is derived from it. Bridges are numbered along the chain shown (N, C = ends). [ ]: non-standard residue; d: D form. The star is where a group is joined. Phe(4-NO2) = N[C@@H](Cc1ccc([N+](=O)[O-])cc1)C(=O)O; 2Nal = N[C@@H](Cc1ccc2ccccc2c1)C(=O)O; d2Nal = N[C@H](Cc1ccc2ccccc2c1)C(=O)O; Ahx = NCCCCCC(=O)O; Bn = c1ccc(C*)cc1
Parameter Ki: see the listing below.
PARAMETER: Ki

1) C[C@@H](OCc1ccccc1)[C@@H]1NC(=O)[C@H](CCCCN)NC(=O)[C@@H](Cc2c[nH]c3ccccc23)NC(=O)[C@H](Cc2ccccc2)NC(=O)CCCCCNC1=O [c[Ahx-Phe-D-Trp-Lys-Thr(Bzl)]] (cyclo([Ahx]F[dW]KT(Bn)))	1000 nM
2) CC(C)[C@H](NC(=O)[C@H](CCCCN)NC(=O)[C@@H](Cc1c[nH]c2ccccc12)NC(=O)[C@H](Cc1ccc(O)cc1)NC(=O)[C@H](Cc1ccc([N+](=O)[O-])cc1)NC(=O)[C@H](N)Cc1ccccc1)C(=O)N[C@@H](Cc1ccccc1)C(=O)N[C@H](C(N)=O)[C@@H](C)O [BIM 23066] (H-[dF][Phe(4-NO2)]Y[dW]KVFT-NH2)	3.1 nM
3) CC(C)[C@@H]1NC(=O)[C@H](CCCCN)NC(=O)[C@@H](Cc2c[nH]c3ccccc23)NC(=O)[C@H](Cc2ccc(O)cc2)NC(=O)[C@@H](NC(=O)[C@H](N)Cc2ccc3ccccc3c2)CSSC[C@@H](C(=O)N[C@@H](Cc2ccc3ccccc3c2)C(N)=O)NC1=O [BIM 23042] (H-[d2Nal]CY[dW]KVC[2Nal]-NH2; disulfide 2-7)	4.2 nM

###

Parameter pKi: see the listing below.
# TARGET_SYSTEM: Somatostatin receptor type 3 (Mus musculus)
# Sequence (P30935 whole entry): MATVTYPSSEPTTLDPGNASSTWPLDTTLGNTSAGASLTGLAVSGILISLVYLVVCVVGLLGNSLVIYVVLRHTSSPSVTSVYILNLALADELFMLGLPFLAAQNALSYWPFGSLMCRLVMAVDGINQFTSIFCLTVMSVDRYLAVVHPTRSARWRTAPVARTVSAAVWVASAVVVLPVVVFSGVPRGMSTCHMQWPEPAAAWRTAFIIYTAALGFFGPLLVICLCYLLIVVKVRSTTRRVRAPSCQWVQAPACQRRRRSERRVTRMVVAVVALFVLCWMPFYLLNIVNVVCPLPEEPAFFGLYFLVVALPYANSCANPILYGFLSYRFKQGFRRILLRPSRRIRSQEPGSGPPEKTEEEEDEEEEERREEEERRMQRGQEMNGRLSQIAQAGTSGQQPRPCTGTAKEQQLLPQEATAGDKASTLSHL
pKi: −log10 of the molar value. Where a SMILES comes first, the peptide text is derived from it. Bridges are numbered along the chain shown (N, C = ends). [ ]: non-standard residue; d: D form. The star is where a group is joined. ξ: configuration not given here. NH(1-naphthylmethyl) = c1ccc2c(CN*)cccc2c1; Phe(4-Cl) = N[C@@H](Cc1ccc(Cl)cc1)C(=O)O; 1Nal = N[C@@H](Cc1cccc2ccccc12)C(=O)O; 2Nal = N[C@@H](Cc1ccc2ccccc2c1)C(=O)O; d1Nal = N[C@H](Cc1cccc2ccccc12)C(=O)O; d2Nal = N[C@H](Cc1ccc2ccccc2c1)C(=O)O; dThr(3ξ) = CC(O)[C@@H](N)C(=O)O; Thr(3ξ) = CC(O)[C@H](N)C(=O)O; ξF = NC(Cc1ccccc1)C(=O)O; X2 = CC(O)[C@H](CO)N*; Ahp = NCCCCCCC(=O)O; Bn = c1ccc(C*)cc1; ξC = NC(CS)C(=O)O
PARAMETER: pKi

1. CC(C)[C@H](NC(=O)[C@H](CCCCN)NC(=O)[C@@H](Cc1c[nH]c2ccccc12)NC(=O)[C@H](Cc1ccc(O)cc1)NC(=O)[C@H](Cc1ccc(Cl)cc1)NC(=O)[C@H](N)Cc1ccccc1)C(=O)N[C@@H](Cc1ccccc1)C(=O)N[C@H](C(N)=O)[C@@H](C)O [BIM 23057] (H-[dF][Phe(4-Cl)]Y[dW]KVFT-NH2)	8.32
2. CC(C)[C@H](NC(=O)[C@H](CCCCN)NC(=O)[C@@H](Cc1c[nH]c2ccccc12)NC(=O)[C@H](Cc1ccc(O)cc1)NC(=O)[C@H](Cc1ccc(Cl)cc1)NC(=O)[C@@H](N)Cc1ccccc1)C(=O)N[C@@H](Cc1ccccc1)C(=O)N[C@@H](Cc1ccc2ccccc2c1)C(N)=O [BIM 23063] (H-F[Phe(4-Cl)]Y[dW]KVF[2Nal]-NH2)	7.09
3. CC(O)[C@H](CO)NC(=O)[C@@H]1CSSCC(NC(=O)C(N)Cc2ccccc2)C(=O)N[C@H](Cc2ccccc2)C(=O)N[C@H](Cc2c[nH]c3ccccc23)C(=O)N[C@H](CCCCN)C(=O)N[C@H](C(C)O)C(=O)N1 (some centres undefined) (H-[ξF][ξC][dF][dW][dK][dThr(3ξ)]C-X2; disulfide 2-7)	8.52
4. CC1NC(=O)C(CCCCN)NC(=O)C(Cc2c[nH]c3ccccc23)NC(=O)C(Cc2ccc(O)cc2)NC(=O)C(NC(=O)C(N)Cc2ccccc2)CSSCC(C(=O)NCc2cccc3ccccc23)NC1=O (centres undefined) [BIM 23034] (H-FCYWKAC-{NH(1-naphthylmethyl)}; disulfide 2-7; configuration not given here)	7.19
5. C[C@@H](OCc1ccccc1)[C@@H]1NC(=O)[C@H](CCCCN)NC(=O)[C@@H](Cc2c[nH]c3ccccc23)NC(=O)[C@H](Cc2ccccc2)NC(=O)CCCCCCNC1=O [c[Aha-Phe-D-Trp-Lys-Thr(Bzl)]] (cyclo([Ahp]F[dW]KT(Bn)))	6.97
6. CC(C)[C@@H]1NC(=O)[C@H](CCCCN)NC(=O)[C@@H](Cc2c[nH]c3ccccc23)NC(=O)[C@H](Cc2ccc(O)cc2)NC(=O)[C@@H](NC(=O)[C@H](N)Cc2ccc3ccccc3c2)CSSC[C@@H](C(=O)N[C@@H](Cc2ccc3ccccc3c2)C(N)=O)NC1=O [BIM 23042] (H-[d2Nal]CY[dW]KVC[2Nal]-NH2; disulfide 2-7)	6.68
7. CC(C)[C@H](NC(=O)[C@H](CCCCN)NC(=O)[C@@H](Cc1c[nH]c2ccccc12)NC(=O)[C@H](Cc1ccc(O)cc1)NC(=O)[C@H](Cc1ccccc1)NC(=O)[C@H](N)Cc1ccccc1)C(=O)N[C@@H](Cc1ccccc1)C(=O)N[C@H](Cc1cccc2ccccc12)C(N)=O [BIM 23056] (H-[dF]FY[dW]KVF[d1Nal]-NH2)	10.70
8. C[C@@H](O)[C@H](NC(=O)[C@H](Cc1ccccc1)NC(=O)[C@@H](NC(=O)[C@H](CCCCN)NC(=O)[C@@H](Cc1c[nH]c2ccccc12)NC(=O)[C@H](Cc1ccccc1)NC(=O)[C@H](Cc1ccccc1)NC(=O)[C@H](N)Cc1ccccc1)[C@@H](C)O)C(N)=O [CAS_133073-82-2] (H-[dF]FF[dW]KTFT-NH2)	9.38
9. CC(O)[C@H](NC(=O)[C@H](CCCCN)NC(=O)[C@@H](Cc1c[nH]c2ccccc12)NC(=O)[C@H](Cc1ccc(O)cc1)NC(=O)[C@@H](C)NC(=O)[C@@H](N)Cc1ccccc1)C(=O)N[C@@H](C)C(=O)N[C@@H](Cc1cccc2ccccc12)C(N)=O (some centres undefined) [BIM 23070] (H-F[dA]Y[dW]K[Thr(3ξ)]A[1Nal]-NH2)	6.95

The reported numbers originate from BindingDB's records for PubMed 8100350.
